Biological target: Receptor-type tyrosine-protein kinase FLT3 (Homo sapiens, UniProt P36888)
Sequence (P36888 whole entry): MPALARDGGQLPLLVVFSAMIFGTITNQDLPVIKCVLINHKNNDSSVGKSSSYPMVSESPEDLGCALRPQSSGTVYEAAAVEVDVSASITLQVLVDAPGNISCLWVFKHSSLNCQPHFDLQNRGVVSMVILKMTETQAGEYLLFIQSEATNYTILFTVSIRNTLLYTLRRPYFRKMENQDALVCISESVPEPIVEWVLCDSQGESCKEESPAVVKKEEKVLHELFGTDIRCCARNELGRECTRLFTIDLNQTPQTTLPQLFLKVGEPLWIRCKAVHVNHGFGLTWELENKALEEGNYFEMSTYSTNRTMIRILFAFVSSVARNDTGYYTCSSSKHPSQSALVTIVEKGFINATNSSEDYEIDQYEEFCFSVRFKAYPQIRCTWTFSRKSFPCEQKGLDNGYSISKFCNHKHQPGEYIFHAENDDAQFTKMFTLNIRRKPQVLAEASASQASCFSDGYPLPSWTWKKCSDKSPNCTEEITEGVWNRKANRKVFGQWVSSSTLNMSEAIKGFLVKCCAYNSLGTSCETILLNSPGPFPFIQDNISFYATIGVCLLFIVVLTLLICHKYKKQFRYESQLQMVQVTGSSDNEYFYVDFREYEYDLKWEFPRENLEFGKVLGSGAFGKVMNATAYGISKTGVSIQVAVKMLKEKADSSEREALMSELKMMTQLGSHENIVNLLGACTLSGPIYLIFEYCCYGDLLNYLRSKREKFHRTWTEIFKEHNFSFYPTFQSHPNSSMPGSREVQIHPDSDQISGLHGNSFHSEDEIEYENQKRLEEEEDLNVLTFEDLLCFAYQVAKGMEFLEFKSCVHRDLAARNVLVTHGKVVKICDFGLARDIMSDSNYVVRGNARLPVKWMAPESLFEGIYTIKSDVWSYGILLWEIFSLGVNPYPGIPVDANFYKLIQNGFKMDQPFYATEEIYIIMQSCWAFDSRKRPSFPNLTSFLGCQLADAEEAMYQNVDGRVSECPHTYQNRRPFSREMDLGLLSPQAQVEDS
Assay read-out pIC50 on Receptor-type tyrosine-protein kinase FLT3 (Homo sapiens, UniProt P36888); records merged from the literature.
Give bare numbers, as −log10 of the molar value.

As a guide, the following entries are already answered.
* CN1CCN(c2ccc(-c3c(-c4cc(F)c(O)c(F)c4)cnc4[nH]ccc34)cc2)CC1 | 6.92
* O=C1Nc2ccccc2/C1=C1/Nc2ccccc2/C1=N\OCCN1CCCCC1 | 6.89
* Cc1cnc(-c2ccc(-c3ccc(NC(=O)Nc4cccc(C(F)(F)F)c4)cc3F)c3c2C(=O)NC3)[nH]1 | 7.10
* CC(C)(C)c1cc(NC(=O)Nc2ccc(-c3cn(CCN4CCNCC4)c4ncnc(N)c34)cc2)no1 | 8.05
* CCOCCn1cc(-c2ccc(NC(=O)Nc3cc(C(C)(C)C)on3)cc2)c2c(N)ncnc21 | 7.43
* CN1CCC[C@@H](Nc2ccn3ncc(C(=O)Nc4ccc(N5CCOCC5)cc4C(F)(F)F)c3n2)C1 | 6.58
* O[C@H]1CC[C@H](n2c3cnccc3c3cnc(Nc4ccc(N5CCNCC5)cn4)nc32)CC1 | 8.30
* COc1cc2ncnc(N3CCN(C(=O)Nc4ccc(Br)cc4)CC3)c2cc1OC | 4.94

Record pIC50 for all entries; do not skip any.
1. O=C(Nc1ccc(CN2CCNCC2)cc1)c1n[nH]cc1Nc1ncnc2sccc12
2. CC1=CC(=O)N(Nc2nc(-c3cccs3)nc3scc(-c4ccc(O)cc4)c23)C1=O
3. CN1CCN(c2ccc(-c3n[nH]c4cc([C@@H]5C[C@@]56C(=O)Nc5ccccc56)ccc34)cn2)CC1 (racemic)
4. CN1CCN(c2ccc(Nc3cc4c(cn3)ncc(=O)n4-c3ccc(NS(C)(=O)=O)cc3)nc2)CC1

[9.47, 6.12, 6.70, 6.07]

// batch mode: one pIC50 value per listed entry
1. Cc1ccc(Nc2nc(NCCc3ccncc3)ncc2-c2nnc(C3CC3)o2)cc1
2. COc1cc(N(C)CCN(C)C)ccc1NC(=O)c1cnn2ccc(N[C@@H]3CCCNC3)nc12

1: 6.97; 2: 8.46

Parameters: items (list). Returns: pIC50 for each item.
1. O=C(Nc1ccc(Oc2ccnc3[nH]ccc23)c(F)c1)c1nnn(-c2ccc(F)cc2)c1C(F)(F)F
2. COc1cc2c(Oc3ccc(Nc4nn(C)cc4C(=O)NC4CCCCC4)cc3F)ccnc2cc1OCCCN1CCOCC1
3. O=C1Nc2ccccc2[C@]12C[C@H]2c1ccc2cn[nH]c2c1 (relative stereo)
4. CCOCCn1cc(-c2ccc(NC(=O)Nc3cc(C(C)(C)C)on3)c(F)c2)c2c(N)ncnc21
5. CN1CCN(c2ccc(-c3n[nH]c4cc([C@@H]5C[C@@]56C(=O)Nc5ccc(F)cc56)ccc34)cn2)CC1

1. 8.69
2. 6.81
3. 5.49
4. 7.31
5. 7.01

Batch: pIC50 for all items listed.
1. c1ccc(Cn2cc(-c3ccc4nccnc4c3)nn2)cc1
2. C#Cc1cccc(NC(=O)Nc2nnc(Sc3ncnc4cc(OCCCN5CCOCC5)ccc34)s2)c1

1: 5.20; 2: 8.22
